Please go through the items and note down their cell entry EC50.
# methodDescription: Nanoclick permeability assay
Just the number please, in nM, no unit attached.

Data request: Give the reported cell entry EC50 for this molecule. CC(=O)N[C@@H](CCCCN=[N+]=[N-])C(=O)NCCC(=O)N[C@@H](CC(C)C)C(=O)N[C@H](C(=O)N[C@@H](Cc1ccccc1)C(=O)N[C@]1(C)CCCCCCC=CCCC[C@@](C)(C(=O)N[C@@H](CO)C(=O)N[C@@H](C)C(=O)N[C@@H](C)C(N)=O)NC(=O)[C@H](CC2CCC2)NC(=O)[C@H](CCC(N)=O)NC(=O)[C@H](C)NC(=O)[C@H](Cc2c[nH]c3ccccc23)NC(=O)[C@H](Cc2ccc(O)cc2)NC(=O)[C@H](CCCCN)NC1=O)[C@@H](C)O [MP-548, AZIDE-ATSP-7041 (E5K)]
Data returned: 1020

Data request: Return cell entry EC50 (reported value) for this molecule: "CC(=O)N[C@@H](CCCCN=[N+]=[N-])C(=O)NCCC(=O)N[C@@H](CC(C)C)C(=O)N[C@H](C(=O)N[C@@H](Cc1ccccc1)C(=O)N[C@]1(C)CCCCCCC=CCCC[C@@](C)(C(=O)N[C@@H](C)C(=O)N[C@@H](C)C(=O)N[C@@H](C)C(=O)O)NC(=O)[C@H](CC2CCC2)NC(=O)[C@H](CCC(N)=O)NC(=O)[C@H](C)NC(=O)[C@H](Cc2c[nH]c3ccccc23)NC(=O)[C@H](Cc2ccc(O)cc2)NC(=O)[C@H](CCC(=O)O)NC1=O)[C@@H](C)O"
Data returned: 496

Data request: For "CC(=O)N[C@@H](CCCCN=[N+]=[N-])C(=O)NCCC(=O)N[C@@H](CC(C)C)C(=O)N[C@H](C(=O)N[C@@H](Cc1ccccc1)C(=O)N[C@]1(C)CCCCCCC=CCCC[C@@](C)(C(=O)N2CCC[C@@H]2C(=O)N2CCC[C@@H]2C(=O)N2CCC[C@@H]2C(=O)N2CCC[C@@H]2C(=O)N2CCC[C@@H]2C(=O)N2CCC[C@@H]2C(N)=O)NC(=O)[C@H](CC2CCC2)NC(=O)[C@H](CCC(N)=O)NC(=O)[C@H](C)NC(=O)[C@H](Cc2c[nH]c3ccccc23)NC(=O)[C@H](Cc2ccc(O)cc2)NC(=O)[C@H](CCC(=O)O)NC1=O)[C@@H](C)O" , write its cell entry EC50.
Data returned: 1420

----------
# methodDescription: Lactate dehydrogenase (LDH) release assay
# Type: cell-based
# appliedConditions: LDH: Cytotoxicity assay EC50
Positions of bridges follow the written chain, without caps; N, C: chain ends. Non-standard residues stand in square brackets, D forms with d. Residues, ends and D or L forms follow the SMILES beside them. R8 = C=CCCCCCC[C@@](C)(N)C(=O)O; Cba = N[C@@H](CC1CCC1)C(=O)O; S5 = C=CCCC[C@](C)(N)C(=O)O
measuredProperty: EC50

Data request: Return reported EC50. Input compound: "CC(=O)N[C@@H](CCCCN=[N+]=[N-])C(=O)NCCC(=O)N[C@@H](CC(C)C)C(=O)N[C@H](C(=O)N[C@@H](Cc1ccccc1)C(=O)N[C@]1(C)CCCCCCC=CCCC[C@@](C)(C(=O)N[C@@H](CO)C(=O)N[C@@H](C)C(=O)N[C@@H](C)C(N)=O)NC(=O)[C@H](CC2CCC2)NC(=O)[C@H](CCC(N)=O)NC(=O)C(C)(C)NC(=O)[C@H](Cc2c[nH]c3ccccc23)NC(=O)[C@H](Cc2ccc(O)cc2)NC(=O)[C@H](CCC(=O)O)NC1=O)[C@@H](C)O"
Data returned: > 50 µM

Data request: Given the compound "CC(=O)N[C@@H](CC(C)C)C(=O)N[C@H](C(=O)N[C@@H](Cc1ccccc1)C(=O)N[C@]1(C)CCCCCCC=CCCC[C@@](C)(C(=O)N[C@@H](CO)C(=O)N[C@@H](C)C(=O)N[C@@H](C)C(N)=O)NC(=O)[C@@H](CC2CCC2)NC(=O)[C@H](CC(C)C)NC(=O)[C@H](CCC(N)=O)NC(=O)[C@H](Cc2c[nH]c3ccccc23)NC(=O)[C@H](Cc2ccc(O)cc2)NC(=O)[C@H](CCC(=O)O)NC1=O)[C@@H](C)O" , write its reported EC50.
Data returned: > 50.7 µM

Data request: Give EC50 for CC(=O)N[C@@H](Cc1ccccc1)C(=O)N[C@]1(C)CCCCCCC=CCCC[C@@](C)(C(=O)N[C@@H](CO)C(N)=O)NC(=O)[C@H](CC2CCC2)NC(=O)[C@H](CC(C)C)NC(=O)[C@H](CCC(N)=O)NC(=O)[C@H](Cc2c[nH]c3ccccc23)NC(=O)[C@H](Cc2ccc(O)cc2)NC(=O)[C@H](CCC(=O)O)NC1=O [MP-203] (Ac-F[R8]EYWQL[Cba][S5]S-NH2; staple 2-9)
Data returned: > 50 µM

----------
# methodDescription: Lactate dehydrogenase (LDH) release assay
# Format: cell-based
# appliedConditions: 10% FBS 4Hr; read-out: LDH: Cytotoxicity assay: EC50
pEC50: −log10 of the molar value. Positions of bridges follow the written chain, without caps; N, C: chain ends. Non-standard residues stand in square brackets, D forms with d. Residues, ends and D or L forms follow the SMILES beside them. Lys(N3) = [N-]=[N+]=NCCCC[C@H](N)C(=O)O; R8 = C=CCCCCCC[C@@](C)(N)C(=O)O; Cba = N[C@@H](CC1CCC1)C(=O)O; S5 = C=CCCC[C@](C)(N)C(=O)O; βAla = NCCC(=O)O
measuredProperty: pEC50

Data request: Report pEC50 for CC(=O)N[C@@H](CCCCN=[N+]=[N-])C(=O)NCCC(=O)N[C@@H](CC(C)C)C(=O)N[C@H](C(=O)N[C@@H](Cc1ccccc1)C(=O)N[C@]1(C)CCCCCCC=CCCC[C@@](C)(C(=O)NCC(=O)N[C@@H](C)C(=O)N[C@@H](C)C(N)=O)NC(=O)[C@H](CC2CCC2)NC(=O)[C@H](CCC(N)=O)NC(=O)[C@H](C)NC(=O)[C@H](Cc2c[nH]c3ccccc23)NC(=O)[C@H](Cc2ccc(O)cc2)NC(=O)[C@H](CCC(=O)O)NC1=O)[C@@H](C)O [MP-798] (Ac-[Lys(N3)][βAla]LTF[R8]EYWAQ[Cba][S5]GAA-NH2; staple 6-13)
Data returned: < 4.30

Data request: Write down pEC50 measured for item "CC(=O)N[C@@H](CCCCN=[N+]=[N-])C(=O)NCCC(=O)N[C@H]1CCCCNC(=O)CC[C@@H]2NC(=O)[C@@](C)(CCCCCCC=CCCC[C@@](C)(C(=O)N[C@@H](CO)C(=O)N[C@@H](C)C(=O)N[C@@H](C)C(N)=O)NC(=O)[C@H](CC3CCC3)NC(=O)[C@H](CCC(N)=O)NC(=O)[C@H](C)NC(=O)[C@H](Cc3c[nH]c4ccccc34)NC(=O)[C@H](Cc3ccc(O)cc3)NC2=O)NC(=O)[C@H](Cc2ccccc2)NC(=O)[C@H]([C@@H](C)O)NC1=O"
Data returned: < 4.29

----------
# Test system: p53 responsive β-lactamase reporter in HCT116 cells
# methodDescription: cells
# Type: cell-based
# appliedConditions: 0% FBS 4Hr; read-out: p53 reporter assay: EC50
measuredProperty: pEC50
# log scale: pEC50 equals minus log10 of the concentration in mol/L

Data request: Output pEC50 of CC(=O)N[C@@H](CC(C)C)C(=O)N[C@H](C(=O)N[C@@H](Cc1ccccc1)C(=O)N[C@]1(C)CCCCCCC=CCCC[C@@](C)(C(=O)N[C@@H](CO)C(=O)N[C@@H](C)C(=O)N[C@@H](C)C(N)=O)NC(=O)[C@H](CC(C)C)NC(=O)[C@H](CCC(N)=O)NC(=O)[C@H](C)NC(=O)[C@H](Cc2c[nH]c3ccccc23)NC(=O)[C@H](Cc2ccc(O)cc2)NC(=O)[C@H](CCC(=O)O)NC1=O)[C@@H](C)O [MP-211]
Data returned: 6.14

Data request: Return reported pEC50. Input compound: CC(=O)N[C@H](C(=O)N[C@@H](CO)C(=O)NC(C)(Cc1ccccc1)C(=O)N[C@]1(C)CCCCCCC=CCCC[C@@](C)(C(N)=O)NC(=O)[C@H](CC(C)C)NC(=O)[C@H](CC(C)C)NC(=O)[C@H](C)NC(=O)[C@H](Cc2c[nH]c3ccccc23)NC(=O)[C@H](Cc2ccc(O)cc2)NC(=O)[C@H](CCC(=O)O)NC1=O)[C@@H](C)O (stereo partly drawn)
Data returned: 4.43

Data request: Retrieve pEC50 measured for "CC(=O)N[C@@H](CCCCN)C(=O)NCCCCCC(=O)N[C@H](C(=O)N[C@@H](CO)C(=O)N[C@@H](Cc1ccccc1)C(=O)N[C@]1(C)CCCCCCC=CCCC[C@@](C)(C(N)=O)NC(=O)[C@H](CC(C)C)NC(=O)[C@H](CC(C)C)NC(=O)[C@H](C)NC(=O)[C@H](Cc2c[nH]c3ccccc23)NC(=O)[C@H](Cc2ccc(O)cc2)NC(=O)[C@H](CCC(=O)O)NC1=O)[C@@H](C)O" and print it.
Data returned: 4.85

These entries and their values trace back to paper PMC10786919.
